Biological target: T1, human Nectin-4-eGFP on T24 cells (clone 3) (human, UniProt Q96NY8 32-510)
T1 sequence: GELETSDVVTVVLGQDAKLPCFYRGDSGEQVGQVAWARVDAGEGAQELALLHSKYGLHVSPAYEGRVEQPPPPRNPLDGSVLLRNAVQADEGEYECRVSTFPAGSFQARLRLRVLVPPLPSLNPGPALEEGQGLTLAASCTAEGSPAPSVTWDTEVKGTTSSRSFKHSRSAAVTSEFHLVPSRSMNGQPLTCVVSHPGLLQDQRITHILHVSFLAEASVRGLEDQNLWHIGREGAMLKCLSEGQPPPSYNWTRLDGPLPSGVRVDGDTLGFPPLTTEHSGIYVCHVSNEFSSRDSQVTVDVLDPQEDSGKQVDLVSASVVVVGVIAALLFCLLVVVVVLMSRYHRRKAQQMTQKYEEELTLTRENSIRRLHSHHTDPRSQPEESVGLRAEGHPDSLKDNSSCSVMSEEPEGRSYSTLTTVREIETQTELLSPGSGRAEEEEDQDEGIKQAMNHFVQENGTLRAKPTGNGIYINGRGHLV
Assay: cell-based or functional assay
OBSERVABLE: % activity (max GFP signal loss compared to enfortumab mAb (100%))
Just the number please, in %, no unit attached.

Please report the measured % activity (max GFP signal loss compared to enfortumab mAb (100%)) for Ab1a (antibody, human IgG1, kappa, L234A L235A, V domains shown, Unconjugated antibody; also called nectin-4 antibody Ab1a) VH: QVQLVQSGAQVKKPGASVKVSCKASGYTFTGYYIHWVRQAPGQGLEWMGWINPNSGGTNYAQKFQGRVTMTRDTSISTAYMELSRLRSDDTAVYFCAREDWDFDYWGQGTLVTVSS VL: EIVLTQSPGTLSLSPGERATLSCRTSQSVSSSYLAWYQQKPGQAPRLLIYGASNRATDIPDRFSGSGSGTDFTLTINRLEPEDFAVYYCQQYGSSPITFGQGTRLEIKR 145
